- STUDY_TARGET: human F508del-CFTR (Homo sapiens, UniProt P13569, DEL508-508)
- Sequence (P13569 with tags, fused parts or gaps DEL508-508): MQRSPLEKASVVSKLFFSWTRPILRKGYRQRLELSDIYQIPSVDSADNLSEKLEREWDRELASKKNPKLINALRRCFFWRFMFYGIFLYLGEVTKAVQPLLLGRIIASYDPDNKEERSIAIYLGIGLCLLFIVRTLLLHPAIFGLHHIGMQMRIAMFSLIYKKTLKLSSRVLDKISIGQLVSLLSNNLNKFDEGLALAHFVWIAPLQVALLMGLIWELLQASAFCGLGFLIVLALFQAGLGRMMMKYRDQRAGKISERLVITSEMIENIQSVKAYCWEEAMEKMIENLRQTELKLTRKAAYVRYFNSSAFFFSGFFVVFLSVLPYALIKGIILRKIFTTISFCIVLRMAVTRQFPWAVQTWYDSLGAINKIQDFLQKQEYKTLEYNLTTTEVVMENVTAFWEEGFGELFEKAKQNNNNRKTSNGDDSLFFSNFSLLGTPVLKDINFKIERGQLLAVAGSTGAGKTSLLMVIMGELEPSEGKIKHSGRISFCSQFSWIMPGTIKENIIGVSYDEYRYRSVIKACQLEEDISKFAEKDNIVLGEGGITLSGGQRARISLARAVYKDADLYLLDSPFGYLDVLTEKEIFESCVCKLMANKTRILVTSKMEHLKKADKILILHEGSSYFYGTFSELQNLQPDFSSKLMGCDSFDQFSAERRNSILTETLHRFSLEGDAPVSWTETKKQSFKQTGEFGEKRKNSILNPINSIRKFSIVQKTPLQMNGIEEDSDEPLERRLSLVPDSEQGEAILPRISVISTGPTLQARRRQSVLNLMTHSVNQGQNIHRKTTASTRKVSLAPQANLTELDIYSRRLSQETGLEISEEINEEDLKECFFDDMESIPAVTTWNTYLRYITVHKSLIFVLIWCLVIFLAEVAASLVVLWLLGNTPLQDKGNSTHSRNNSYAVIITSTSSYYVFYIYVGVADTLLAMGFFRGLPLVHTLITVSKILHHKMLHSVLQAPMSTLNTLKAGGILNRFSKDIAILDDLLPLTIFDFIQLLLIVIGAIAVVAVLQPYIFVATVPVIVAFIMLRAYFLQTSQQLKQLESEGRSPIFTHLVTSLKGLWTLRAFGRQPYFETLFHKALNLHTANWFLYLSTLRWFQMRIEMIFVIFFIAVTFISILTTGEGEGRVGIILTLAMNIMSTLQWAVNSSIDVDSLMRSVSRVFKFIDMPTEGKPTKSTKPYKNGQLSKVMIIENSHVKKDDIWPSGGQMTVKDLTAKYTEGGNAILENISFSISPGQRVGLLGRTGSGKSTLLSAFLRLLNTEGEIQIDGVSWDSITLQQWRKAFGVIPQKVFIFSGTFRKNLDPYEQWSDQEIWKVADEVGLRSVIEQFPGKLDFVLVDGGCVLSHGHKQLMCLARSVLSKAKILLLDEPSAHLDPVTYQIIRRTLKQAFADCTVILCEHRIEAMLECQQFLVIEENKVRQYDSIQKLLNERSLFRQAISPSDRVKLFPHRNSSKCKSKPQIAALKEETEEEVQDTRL
- EXPERIMENT_NOTES: F508del-CFTR cell surface expression (corrector activity), DiscoveRx ß-galactosidase complementation chemiluminescence assay in recombinant U2OS cell line
- APPLIED_CONDITIONS: EC50, F508del-CFTR cell surface expression, U2OS cells, 16h compound incubation; geomean of several measurements
PARAMETER: EC50 (nM)

Cc1noc(CC[C@@H]2C(=O)N[C@H](Cc3ccccc3)COc3cnc4ccc(F)cc4c3C(=O)N[C@H](C(=O)NCCc3noc(C4CC4)n3)CC(=O)N(C)[C@@H](CC(C)C)C(=O)N2C)n1 148

A: COc1noc(CCNC(=O)[C@@H]2CC(=O)N(C)[C@@H](CC(C)C)C(=O)N(C)[C@H](Cc3nc(C(F)(F)F)no3)C(=O)N[C@H](Cc3ccccc3)COc3cc(C)nc(OC)c3C(=O)N2)c1F
B: COc1nccc2c1C(=O)N[C@H](C(=O)NCC(F)(F)c1nc(C3CC3)no1)CC(=O)N(C)[C@@H](CC(C)C)C(=O)N1CCCC[C@@H]1C(=O)N[C@H](Cc1ccccc1)CO2
C: COc1noc(CCNC(=O)[C@@H]2CC(=O)N(C)[C@@H](CC(C)C)C(=O)N(C)[C@H](CC(F)(F)F)C(=O)N[C@H](Cc3ccccc3)COc3ccc4ncc(F)cc4c3C(=O)N2)n1
D: COc1nc(C)nc2c1C(=O)N[C@H](C(=O)NCCc1cc(C3CC3)no1)CC(=O)N(C)[C@@H](CC(C)C)C(=O)N(C)[C@H](C)C(=O)N[C@H](Cc1ccccc1)CO2
Which order do these items take when sorted by rising EC50? List them. Write out the labels following the order that was asked for.
A, C, B, D

====

- STUDY_TARGET: human F508del-CFTR (Homo sapiens, UniProt P13569, DEL508-508)
- EXPERIMENT_NOTES: F508del-CFTR cell surface expression (corrector activity), DiscoveRx ß-galactosidase complementation chemiluminescence assay in recombinant U2OS cell line
- APPLIED_CONDITIONS: EC50, F508del-CFTR cell surface expression, U2OS cells, 16h compound incubation; geomean values
pEC50: −log10 of the molar value.
PARAMETER: pEC50

MOLECULE	pEC50
COc1cccc(CCNC(=O)[C@@H]2CC(=O)N(C)[C@@H](CC(C)C)C(=O)N3CCN(S(=O)(=O)CC4CCOCC4)C[C@@H]3C(=O)N[C@H](Cc3ccccc3)COc3ccc4ccccc4c3C(=O)N2)c1 [Example 746]	6.68
COc1nc(C)cc2c1C(=O)N[C@H](C(=O)NCCc1nc(C3CC3)no1)CC(=O)N(C)[C@@H](CC(C)C)C(=O)N1CCCC[C@@H]1C(=O)N[C@H](Cc1ccccc1)CO2 [Example 656]	6.45
Cc1cc(CCNC(=O)[C@@H]2CC(=O)N(C)[C@@H](CC(C)C)C(=O)N(C)C3(CC3)C(=O)N[C@H](Cc3ccccc3)COc3cnc4ccccc4c3C(=O)N2)on1 [Example 434]	6.18
COc1cccc(CCNC(=O)[C@@H]2CC(=O)N(C)[C@@H](CC(C)C)C(=O)N(C)CC(=O)N[C@H](Cc3ccccc3)COc3ccc4ncccc4c3C(=O)N2)c1 [Example 441]	6.09
CC(C)C[C@H]1C(=O)N2CCCC[C@@H]2C(=O)N[C@H](Cc2ccccc2)COc2cnc3ccccc3c2C(=O)N[C@H](C(=O)NCCc2ccc(-n3nccn3)cc2)CC(=O)N1C [Example 463]	6.56
Cc1cc(CCNC(=O)[C@@H]2CC(=O)N(C)[C@@H](CC(C)C)C(=O)N(C)[C@H](COCc3ccccc3)C(=O)N[C@H](Cc3ccccc3)COc3cnc4ccccc4c3C(=O)N2)on1 [Example 564]	7.31

P: Cc1cc(CCNC(=O)[C@@H]2CC(=O)N(C)[C@@H](CC(C)C)C(=O)N(C[C@H]3CCCCO3)CC(=O)N[C@H](Cc3ccccc3)COc3cnc4ccccc4c3C(=O)N2)on1 [Example 445]
Q: COc1cncc(S(=O)(=O)N2CCN3C(=O)[C@H](CC(C)C)N(C)C(=O)C[C@@H](C(=O)NCCc4cc(C)no4)NC(=O)c4c(ccc5ccccc45)OC[C@@H](Cc4ccccc4)NC(=O)[C@H]3C2)c1 [Example 479]
Parameter metric = pEC50. Return the lower-valued option from P and Q . Return value: the label identifying the chosen record.
P

P: CC(C)C[C@H]1C(=O)N2CC[C@H](c3ccccc3)C[C@@H]2C(=O)N[C@H](Cc2ccccc2)COc2cnc3ccccc3c2C(=O)N[C@H](C(=O)NCCc2cc(C3CC3)no2)CC(=O)N1C [Example 677]
Q: Cc1cc(CCNC(=O)[C@@H]2CC(=O)N(C)[C@@H](CC3CCCC3)C(=O)N3CCCC[C@H]3C(=O)N[C@H](Cc3ccccc3)COc3ccc4nc(C)oc4c3C(=O)N2)on1 [Example 437]
R: Cc1cc(CCNC(=O)[C@@H]2CC(=O)N(C)[C@@H](CC(C)C)C(=O)N(C)[C@H](Cc3ccccc3)C(=O)N[C@H](Cc3ccccc3)COc3cnc4ccc(F)cc4c3C(=O)N2)on1 [Example 722]
S: Cc1cc(CCNC(=O)[C@@H]2CC(=O)N(C)[C@@H](CC3CCCC3)C(=O)N3CCCC[C@@H]3C(=O)N[C@H](Cc3ccccc3)COc3ccc4c(C)noc4c3C(=O)N2)on1 [Example 630]
Which order do these items take when sorted by rising pEC50? List them. Write out the labels following the order that was asked for.
Q, S, R, P
(Q: 6.07, S: 6.58, R: 7.00, P: 7.43)

====

- STUDY_TARGET: human F508del-CFTR (Homo sapiens, UniProt P13569, DEL508-508)
- EXPERIMENT_NOTES: F508del-CFTR cell surface expression (corrector activity), DiscoveRx ß-galactosidase complementation chemiluminescence assay in recombinant U2OS cell line
- APPLIED_CONDITIONS: U2OS, in relation to Emax of corrector lumacaftor (=100%); arithmetic mean values
PARAMETER: Emax (%)

A selection of reference data follows.
COMPOUND	STUDY_TARGET	Emax, %
COc1cccc(CCNC(=O)[C@@H]2CC(=O)N(C)[C@@H](CC(C)C)C(=O)N3CCN(CCCO)C[C@@H]3C(=O)N[C@H](Cc3ccccc3)COc3ccc4ccccc4c3C(=O)N2)c1 [Example 451]	human F508del-CFTR (Homo sapiens, UniProt P13569, DEL508-508)	307
Cc1cc2ccc3c(c2o1)C(=O)N[C@H](C(=O)NCCc1noc(C2CC2)n1)CC(=O)N(C)[C@@H](CC(C)C)C(=O)N(C)C1(CC1)C(=O)N[C@H](Cc1ccccc1)CO3 [Example 553]	human F508del-CFTR (Homo sapiens, UniProt P13569, DEL508-508)	304
Cc1cc(CCNC(=O)[C@@H]2CC(=O)N(C)[C@@H](CC(C)C)C(=O)N(C)[C@@H](COC(C)(C)C)C(=O)N[C@H](Cc3ccccc3)COc3ccc4ccccc4c3C(=O)N2)on1 (racemic) [Example 719]	human F508del-CFTR (Homo sapiens, UniProt P13569, DEL508-508)	313
COc1cccc(CCNC(=O)[C@@H]2CC(=O)N(C)[C@@H](CC(C)C)C(=O)N(CCC3CCCCC3)CC(=O)N[C@H](Cc3ccccc3)COc3ccncc3C(=O)N2)c1 [Example 590]	human F508del-CFTR (Homo sapiens, UniProt P13569, DEL508-508)	201
CC(C)C[C@H]1C(=O)N(C)CC(=O)N[C@H](Cc2ccccc2)COc2nc3ccccn3c2C(=O)N[C@H](C(=O)NCCc2ccc3c(c2)OCO3)CC(=O)N1C [Example 430]	human F508del-CFTR (Homo sapiens, UniProt P13569, DEL508-508)	194

A: Cc1cc(CCNC(=O)[C@@H]2CC(=O)N(C)[C@@H](CC(C)C)C(=O)N3CCN(c4ccccc4)C[C@@H]3C(=O)N[C@H](Cc3ccccc3)COc3cnc4ccccc4c3C(=O)N2)on1 [Example 510]
B: CC(C)C[C@H]1C(=O)N(C)C2(CC2)C(=O)N[C@H](Cc2ccccc2)COc2ccc3ncc(F)cc3c2C(=O)N[C@H](C(=O)NCCc2cc(C3CC3)no2)CC(=O)N1C [Example 545]
Two entries are listed, A and B . Which one carries the higher Emax? Return value: the label identifying the chosen record.
B

====

- STUDY_TARGET: human F508del-CFTR (Homo sapiens, UniProt P13569, DEL508-508)
- EXPERIMENT_NOTES: F508del-CFTR cell surface expression (corrector activity), DiscoveRx ß-galactosidase complementation chemiluminescence assay in recombinant U2OS cell line;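 note: U2OS cells co-expressing ProLink-tagged F508del-CFTR and a membrane-anchored enzyme acceptor, where more surface CFTR restores β-galactosidase activity measured by chemiluminescence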
- APPLIED_CONDITIONS: EC50, F508del-CFTR cell surface expression, U2OS cells, 16h compound incubation; geomean values
PARAMETER: EC50 (nM)

MOLECULE	REPORTED_RESULT
CC(C)C[C@H]1C(=O)N2CCCC[C@@H]2C(=O)N[C@H](Cc2ccccc2)COc2ccc3ncccc3c2C(=O)N[C@H](C(=O)NCCc2cc(C3CC3)no2)CC(=O)N1C	170

P: CC(C)C[C@H]1C(=O)N2CCCC[C@@H]2C(=O)N[C@H](Cc2ccccc2)COc2ccc3ncccc3c2C(=O)N[C@H](C(=O)NCCc2cc(C3CC3)on2)CC(=O)N1C
Q: COc1cc2c(cn1)OC[C@@H](Cc1ccccc1)NC(=O)[C@H]1CCCCN1C(=O)[C@H](CC(C)C)N(C)C(=O)C[C@@H](C(=O)NCCc1cc(C3CC3)on1)NC2=O [Example 526]
Parameter metric = EC50. Return the lower-valued option from P and Q . Return value: the label identifying the chosen record.
P
(P: 149 nM, Q: 394 nM)
